# experimental.target: T1, HLA-DQ2.5/omega 1 gliadin peptide complex on Ba/F3 cells (human; wheat)
# T1 construct: also called Ba/F3-HLA-DQ2.5/omega 1 gliadin peptide
# experiment.notes: FACS
quantity: FIG. 30 FACS value (IC17=0, DQN0139bb=100)

>  <binder>
DQN0344xx (antibody, human IgG1, kappa, V domains shown, also called DQN0344Hx; DQN0344Lx) VH: QSLEESGGGLVKPGGTLTLTCTASGFSFSSSYWMCWVRQAPGKGLEWVACVYGGSDTTYYASWTKGRFTISKGSSTTVALQVTSLTAADTATYFCARDPLNYYYYGELNLWGPGTLVTVSS VL: AVVLTQTASPVSAAVGGTVTIRCQATENIYSGLAWYQQKPGQPPKVLIYYVSTLASGVPSRFKGSGSGTEYTLTISGVQCDDAATYYCQTYHDISNVTFGGGTKVEIKR

>  <recorded.measurement>
68.8

$$$$
>  <binder>
DQN0333hh (antibody, human IgG1, kappa, V domains shown, also called DQN0333Lh) VH: QSVEESGGRLVMPGGSLTLTCTASGFSLSSYYMNWVRQAPGKGLEWIGVIYSTDITDYATWATGRFTISKTSTTVDLKMTSLTAADTATYFCARELSPTTSGYIAYLWGPGTLVTVSS VL: AYDMTQTPASVEVAVGGTVTIKCQASQSISSYLAWYQQKPGQPPKLLIYSASTLASGVPSRFKGSGSGTQFTLTVIDVQCDDAATYYCQQTYSGKNVINTFGGGTKVEIKR

>  <recorded.measurement>
106

$$$$
>  <binder>
DQN0303hh (antibody, human IgG1, kappa, V domains shown, also called DQN0303Lh) VH: QQHLEESGGGLVKPGGTLTLTCTASGIDFSSYYYMCWVRQAPGKGLEWIACIYTGDGSTYYASWVNGRFTISRSTSLNTVTLQLNGLAAADTATYFCARSYGASSAIGYFNLWGPGTLVTVSS VL: DVVMTQTPSSKSAAVGGTVTIKCQASQNIYSNLAWYQQKPGQRPKLLIYEASTLASGVPSRFRGSGSGTEFTLTISDLECDDAATYYCQNYYYTSSNDFYTFGGGTKVEIKR

>  <recorded.measurement>
56.2

$$$$
